// melting point lookup, one value per entry

{"columns": ["compound", "melting point"],
 "data": [
  ["Clc1cc(Cl)cc(-c2ccc(-c3cnc(-c4c(Cl)cccc4Cl)nc3)cc2)c1", "> 220 °C"],
  ["Fc1cccc(Cl)c1-c1ncc(-c2ccc(-c3ccc(Cl)c(Cl)c3)cc2)cn1", "196 to 199 °C"],
  ["N#CN1C(c2ccc(Br)cc2)=CC=NC1c1c(F)cccc1F (centres unmarked)", "146 to 148 °C"],
  ["Fc1cccc(F)c1-c1ncc(-c2ccc(Br)cc2)cn1 [Compound P1.3]", "193 to 194 °C"]
]}

# context switch: different compound, same melting point
// query Please look up its melting point: Fc1cccc(F)c1-c1nccc(-c2ccc(-c3ccc(Cl)cc3)cc2)n1
// result 167 to 168 °C

Source: patent US6686469B2
